This section presents molecules with their documented INHIBITION values.
# Test system: Plasmodium berghei
# Protocol Details: Screen against P. berghei liver stage (PbLuc), transformed with Luciferase, at 10uM
# Assay type: functional, HepG2
# Condition Context: tested at 10 uM
About 8,600 (12%) of roughly 69,000 compounds showed an effect of 50% or more. For the sample, strong results were picked, then their nearest neighbours and some compounds at random.
Value expressed in %; do not type the unit.

Below: 2 molecules and their reported INHIBITION.
- Molecule: "COc1coc(CN2CCCC(CCc3ccc(F)c(F)c3)C2)cc1=O (centres undefined)"
  INHIBITION (%): 63.6
- Molecule: "O=C(c1cc(=O)c(OCc2ccccc2F)co1)N1CCSCC1"
  INHIBITION (%): 21.5

Recorded INHIBITION for "NC(=O)COc1ccc(CNCc2ccc(Cl)c(F)c2)cc1" with Plasmodium berghei, please? 0.426

Recorded INHIBITION for "N#Cc1csc(CNCCOc2ccc(Cl)cn2)c1" with Plasmodium berghei, please? 4.35

Recorded INHIBITION for CC(C)(C)C(=O)N1CCC2(CNS(=O)(=O)c3cnccc3O2)C1 (centres undefined) with Plasmodium berghei, please? 53.2

---

# Tested on: Plasmodium berghei
# Protocol Details: Screen against P. berghei liver stage (PbLuc), transformed with Luciferase, at 10uM
# Format: functional, HepG2
# Condition Context: tested at 10 uM
Hit rate of the full screen: of about 69,000 compounds, about 8,600 (12%) showed an effect of 50% or more. Many of the other results were omitted from the sample, so strong results are more common in it than they were.
This section presents molecules with their documented INHIBITION values.
Value expressed in %; do not type the unit.

- Molecule: "N#Cc1ccc(C(=O)O)nc1C=Cc1cccc(Br)c1"
  Tested Target: "Plasmodium berghei"
  INHIBITION [%]: 39.4
- Molecule: "CN1CC=C(c2noc(CCC(=O)N3CCCC3)n2)CC1"
  Tested Target: "Plasmodium berghei"
  INHIBITION [%]: 41.6

Please look up its INHIBITION: "COc1ccc(OCCNC(=O)N2CCS(=O)(=O)CC2)cc1" -16.35

Please look up its INHIBITION: CC(C)(C)CC(=O)N1CCCC2(CC(C(=O)Nc3ccccc3)=NO2)C1 (centres undefined) -32

Please look up its INHIBITION: "CN1CC=C(c2noc(CCC(=O)N3CCc4ccccc43)n2)CC1" 32.5

Please look up its INHIBITION: "COc1ccc(C[C@H]2CN(C(=O)c3cscn3)CC[C@@H]2OC)cc1" 22.3

Please look up its INHIBITION: "Cc1ccccc1C(=O)NC[C@@H]1CCN(C(=O)c2cscn2)C[C@H]1O" 63.8

Please look up its INHIBITION: "COCCNC(=O)NCc1cc(-c2ccncc2)n(C2CCCC2)n1" 26.4

Please look up its INHIBITION: "CC(C)(C)C(=O)NCCn1ccc(-c2ccccn2)n1" -43.7

---

# Tested on: Plasmodium berghei
# Protocol Details: Screen against P. berghei liver stage (PbLuc), transformed with Luciferase, at 10uM
# Type: functional, HepG2
# Condition Context: tested at 10 uM
Screen size: about 69,000 compounds; about 8,600 (12%) showed an effect of 50% or more. Only a selection was taken, and strong results are over-represented in it overall.
This section presents molecules with their documented INHIBITION values.
Value expressed in %; do not type the unit.

Below: 2 molecules and their reported INHIBITION.
- Record Smiles: "CCN(CCN(C)C)c1nc(CCN)nc2sc(C)c(C)c12"
  Result Units: "%"
  Val: 71
- Record Smiles: "O=C(NCCc1c[nH]cn1)c1ccc2c(c1)C(=O)N(C1CCCC1)C2=O"
  Result Units: "%"
  Val: 36.6

Please look up its INHIBITION: "COCCN1C(=O)c2ccc(C(=O)NCCc3c[nH]cn3)cc2C1=O" 68.4

Please look up its INHIBITION: "CC(C)CCN1C(=O)c2ccc(C(=O)NCCc3c[nH]cn3)cc2C1=O" 65.4
